Hey, just so you know, these numbers are from the supplement of paper PMC6555819.

PBM binding z-score values by entry
System: RXRa DBDmut IVT, anti-RXR (DBD mutation: RXRa K156A/R161A, NR concentration 90 nM)
Test: PBM binding z-score (relative to random genomic background probes); higher = stronger binding; sequences stand for … in GC…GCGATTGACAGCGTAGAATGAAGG

{"columns": ["monomer_sequence", "PBM binding z-score"],
 "data": [
  ["ACAGACAGGTGAGTCAAGGTAACTCAGCTGGACG", -0.585],
  ["CGTCCAAGGTCAATCCTAGGTCAGTGAAAGCATT", 3.57],
  ["ACTATTAGTTTACTTAGGGCAACCGATACGACGC", 1.17],
  ["ATCGAAAGGTCGAGGTAAGTATAGAGAAAGGGAA", 0.467],
  ["TCTTGTAGATCAATAGAGGTTAAGCAAGTGCGCT", 0.564],
  ["CCTACTGGGCCATTCAGAGTTCATTGATCATATG", 2.26],
  ["CGTCCAAGGTCAAGGTCAGTGAGAGAGACTCGAA", 3.75],
  ["CCTAGCAGGCCAATCTGGGTCAGTCAAGGCTTGA", -0.281],
  ["GCTATTAGTTGAAAGGGCACCCGAATGATTCTCG", 1.06],
  ["CAAACTAGCTCACCGGAAGGTCAAAGTCCGCATG", 0.916],
  ["GCGACTGGGGCAGAGCAGGTTACCATAAGGTTGG", -0.613],
  ["TCTTGTAGATCAGCAGTTTAAGAAAGCTGGCCAA", 0.659],
  ["GCAAACAGGTGAAACGCAGGTAACTCAGGGTGGC", -0.459],
  ["ACTAGTTGGTCAGCTGAGGCCACACACAATTCGG", 0.0642]
]}

---

Test system: PPARg:RXRa 270nM:90nM, anti-RXR (NR concentration 270 nM, RXRa partner concentration 90 nM)
Test: PBM binding z-score (relative to random genomic background probes); higher = stronger binding; sequences stand for … in GC…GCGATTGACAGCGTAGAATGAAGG

{"columns": ["monomer_sequence", "PBM binding z-score"],
 "data": [
  ["ATAGGTAGGTTACATCCGGGTCATTCAGGCTATG", 2.74],
  ["ACAGACAGGTGATGAAGGTAACTAAGGCTATCAT", 0.00614],
  ["CAAACTAGGTCAAGAAGTCAAAGTCCGCTTCCCG", 6.67],
  ["TACCCTAGGTCAGATCGGGCCAGTATACGCTATA", 1.34],
  ["CATCCAAGGTCATAGGAGGTCAGTGAAGACAGAT", 6.07],
  ["CCTAGTGGGCCACGAAAGGTCATTGATTCAGTGA", 4.88],
  ["CAGCCTAGGTCAGGGCCAGTATCGGAGGAACGTT", 0.759],
  ["GCGACTGGGGCATCAGCAGGGTACCATAACTTAA", 0.382],
  ["CAAACTAGGTCAAGGTCCAAGTCGGTTTGTGCCA", 7.5],
  ["AATACAGGGTCATCGTAGGCCTGAGTACGCACAG", 5.92],
  ["TGACCAAGGTGAAGGTCGTTGATCCCTCTGTAGA", 3.17],
  ["TCGAGGAGGTTAGGGGCATTCAGAATGGCGTCGA", 1.08],
  ["GCGACTGGGGCAAAGCAGGGTACCATAAGGTTGG", 0.904],
  ["CCAGACAGGTCAGAAGGTAACTCAGCCTCGATTA", 2.26],
  ["GCAGACAGGTGAAACGCAGGTAGCTCAGGGTGGC", -0.178],
  ["CGAACTAGGTCAATGACAGGACAGTGAATAGTAA", 6.02],
  ["ATATGTAGGTTAAATCCGGGTCATTCAGGCTATG", 5.44],
  ["TCTACTAGTTGATTAGGGCAACCGAAACAGCGGA", 1.66],
  ["AGAATAAGGTTATTAAGATCAGGGAATTGCGGTC", 1.67],
  ["ATCGAAAGGTCGACGTGGTGAGTATACACCGTTT", 2.66],
  ["TCATATAGGTAATACAGATGAAAGTCGGCATCTA", 1.93],
  ["TCGAGTAGGTTAGGCGGGGCATTCAGCCAACATA", 0.886],
  ["ATCGCAAGGTCGAGGTGAGTATAGAGAAAGGGAA", 0.957],
  ["CCGACTCGGGCATAAGGTTACCATAAGCCAGCCC", 1.19],
  ["ATCGAAAGGTCGAGAGGTGAGTATACAGAAAGGC", 3.44],
  ["GCTTACTGGTCAAAGGTTATAGCATGAATAGAAT", 7.6]
]}

---

System: LXRa homodimer (NR concentration 270 nM)
Test: PBM binding z-score (relative to random genomic background probes); higher = stronger binding; sequences stand for … in GC…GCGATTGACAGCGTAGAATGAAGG

{"columns": ["monomer_sequence", "PBM binding z-score"],
 "data": [
  ["TCTTGTAGATCAATACAGGTTAAGAAAGTGCGCT", 0.393],
  ["GGATATAGGTAATACAAGGTGAAAGTCCGATTGT", 0.722],
  ["ATCTCTAGGTAACCAAGTGCAGTGAATGCCGAAC", -0.464],
  ["TCGAGTAGGTTAGCGGCATTCAGAATGGCGTCGA", -0.848],
  ["GCTCGGAGGACAAGGTCATAGCTTTGTCCGTAGA", 0.47],
  ["ACTATTAGTTGACTTAGGGCAACCTATACGACGC", 0.321],
  ["ATCTCTAGGTAAGACTCAGTTCAGTGCAGAACGC", 0.807],
  ["AGTCAAAGTTCAGGAAGAGGTAACGTAAAGCACG", 0.911],
  ["ACTAGTTGGTCAGCTAAGGTCACACACAATTCGG", 2.56],
  ["TCTTGTAGCTCAACAGGAGGTTAAGAAAGATCGA", -0.218],
  ["CCTGCTAGGTCATGGTCTGCTAATCTACAGTATG", 0.138],
  ["TGAATGAGGTTAAAGATCAGGAAACGTGGCGTCG", -0.309],
  ["CGAACTAGGTCATCCAGGCCAGTGAATACATTGA", 0.198],
  ["GCTAGTAGATCAAGGTTAAGAAAGACTAAGCTAA", -0.651],
  ["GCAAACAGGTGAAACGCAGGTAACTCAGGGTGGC", -0.463],
  ["GATACAGGGTCAGCTAGAGGCCAGACTATGGAAA", -0.325],
  ["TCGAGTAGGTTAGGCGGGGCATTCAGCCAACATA", -0.616],
  ["TCTTATAGATCAAGCAGGTTAAGAAAGCCTGAGT", -0.0643],
  ["CCGCCTGGGGCAAAGGTTACCATACTCAGTACGA", 0.256],
  ["CGTCCAAGGTCAGCAGGTCAGCGAAAGCGACGTG", 0.407],
  ["TGAATAAGGTTATAAGATCAGGGAACGTTGCAAA", 0.228],
  ["TCTTGTAGATAAAGCAGGTTAAGAAAGCCTGAGT", -0.172],
  ["CCTTACGGGTCACTGAGAGGTTATAGCATTTGGA", 0.946],
  ["CGTCCCAGGTCAGCAGGTCAGTGAAAGCGACGTG", 0.419],
  ["AGTCAAAGTTCATCTAGGTAACGGAAGATATGCT", 4.37],
  ["CCTAGTTGGTCAGGAGGTGACACACCGGATATGA", 0.0506],
  ["TGCCAAAGTTCAAAGGTAACGTAAGTATCCACAC", 4.65],
  ["CAGCCTAGGTCAGGCCCAGTATAGGAGGAACGTT", -0.444],
  ["CAAACTAGGTCAAGAGGTCAAAGACCGCTTCCCG", 5.13],
  ["TCTTGTAGATCAGCAGGTTAAGAATGCTGGCCAA", -0.38],
  ["TTACCAAGGTGAAAGGTCGTTTATGCACGCCTTG", 0.773],
  ["GCTAGTTGGTCAGTAAAAGATCACACACCGGTCG", 0.00819],
  ["CCTATTAGTTGACCTTAAGGGCAACCGAAGCTCG", 2.42],
  ["ACTATTAGTTGCCTTAGGGCAACCGATACGACGC", 0.285],
  ["TTACCAAGCTGAAGGTCGTTGATCCCTCTGTAGA", -0.245],
  ["CGTCCAAGGTCATAGGAGGTCAGTGATGACAGAT", 5.1],
  ["CAAACTAGGTAAAGGTCAAAGTCGGTTTGTGCCA", 5.75]
]}
